- tested_on: Proton Pump (H^+,K^+-ATPase) (Sus scrofa)
- Construct: gastric vesicles were isolated from porcine stomachs
- Sequence (P19156 2-1034 limits assumed): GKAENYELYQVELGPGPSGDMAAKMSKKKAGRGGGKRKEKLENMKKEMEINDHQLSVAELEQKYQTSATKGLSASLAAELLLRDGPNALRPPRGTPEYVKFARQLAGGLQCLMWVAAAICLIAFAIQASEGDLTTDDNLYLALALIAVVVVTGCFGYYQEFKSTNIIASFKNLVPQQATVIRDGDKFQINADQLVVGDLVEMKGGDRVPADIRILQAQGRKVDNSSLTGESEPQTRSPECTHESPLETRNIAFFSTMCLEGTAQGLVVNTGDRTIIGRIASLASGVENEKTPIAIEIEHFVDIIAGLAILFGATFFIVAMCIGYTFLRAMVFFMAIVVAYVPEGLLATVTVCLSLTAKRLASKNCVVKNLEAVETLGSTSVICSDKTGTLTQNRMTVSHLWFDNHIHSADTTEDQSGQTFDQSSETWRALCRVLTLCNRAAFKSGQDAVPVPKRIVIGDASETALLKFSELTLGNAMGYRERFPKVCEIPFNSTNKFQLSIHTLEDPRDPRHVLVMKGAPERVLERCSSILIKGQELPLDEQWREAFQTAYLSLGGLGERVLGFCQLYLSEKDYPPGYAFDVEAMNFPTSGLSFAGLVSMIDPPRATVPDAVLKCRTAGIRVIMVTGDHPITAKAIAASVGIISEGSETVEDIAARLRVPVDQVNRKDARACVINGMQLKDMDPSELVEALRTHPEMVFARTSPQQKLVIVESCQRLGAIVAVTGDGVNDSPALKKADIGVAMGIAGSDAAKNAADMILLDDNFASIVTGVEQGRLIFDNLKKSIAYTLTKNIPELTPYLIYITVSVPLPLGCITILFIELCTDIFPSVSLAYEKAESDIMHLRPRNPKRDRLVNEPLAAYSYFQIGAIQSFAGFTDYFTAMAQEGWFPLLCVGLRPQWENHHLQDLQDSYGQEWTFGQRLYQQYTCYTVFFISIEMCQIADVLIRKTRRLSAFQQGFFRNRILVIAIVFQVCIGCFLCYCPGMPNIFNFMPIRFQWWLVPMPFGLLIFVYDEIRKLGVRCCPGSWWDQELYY
- Sequence (P18434 whole entry partner): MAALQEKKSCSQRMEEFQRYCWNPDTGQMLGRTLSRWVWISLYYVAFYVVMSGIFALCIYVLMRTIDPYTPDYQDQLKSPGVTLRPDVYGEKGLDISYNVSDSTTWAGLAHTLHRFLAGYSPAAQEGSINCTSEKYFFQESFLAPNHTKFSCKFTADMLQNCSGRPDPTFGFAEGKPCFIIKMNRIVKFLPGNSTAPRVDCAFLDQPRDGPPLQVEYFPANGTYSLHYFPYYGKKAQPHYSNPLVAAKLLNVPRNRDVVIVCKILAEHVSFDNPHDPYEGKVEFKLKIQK
- procedure_details: Inhibitory activity on proton pump (H+,K+-ATPase) activity, porcine gastric vesicles, malachite green readout
- test_conditions: porcine gastric vesicles, pH 6.5, 8 mM KCl, 0.2 mM ATP
pIC50: −log10 of the molar value. Counter-ions that a name gives are not always drawn.
A collection of compounds and their measured pIC50

Lookup result for Cc1cccc(C)c1CNc1cc(NC(=O)[C@@H]2CN2)cn2c(C)c(C)nc12 [Example 109, hydrochloride] ; measured pIC50: 6.30 to 7.00

* * *

- tested_on: Proton Pump (H^+,K^+-ATPase) (Sus scrofa)
- Construct: gastric vesicles were isolated from porcine stomachs
- procedure_details: Inhibitory activity on proton pump (H+,K+-ATPase) activity, porcine gastric vesicles, malachite green readout
- test_conditions: porcine gastric vesicles, pH 6.5, 8 mM KCl, 0.2 mM ATP
- Protocol: Specifically, gastric vesicles were isolated from porcine stomachs, and the protein content of the vesicles was quantified using a BSA kit (Bio-Rad, 5000205). […] The optical density (OD) value was measured at 620 nm using a microplate reader (Spectramax M5e, Molecular devices). […] The IC50 of the test compounds was analyzed using nonlinear regression using the GraphPad Prism8 program using the % inhibition value at each concentration.
Where a name gives a salt, the structure may show the parent alone.
A collection of molecules and their measured IC50

// solved cases for IC50 follow
molecule | measured_parameter | observed_measurement
Cc1cccc(C)c1CNc1cc(NC(=O)C2CCCC2)cn2c(C)c(C)nc12 | IC50 | 0.1 to 0.5 µM
Cc1cccc(C)c1CNc1cc(NC(=O)CCNC(=O)CO)cn2c(C)c(C)nc12 | IC50 | 0.05 to 0.1 µM
Cc1cc(F)cc(C)c1CNc1cc(NC(=O)[C@H](C)O)cn2c(C)c(C)nc12 | IC50 | 0.1 to 0.5 µM
Cc1cccc(C)c1CNc1cc(NC(=O)[C@@]2(C)CCN2)cn2c(C)c(C)nc12 [Example 75, hydrochloride] | IC50 | 0.1 to 0.5 µM
Cc1cccc(C)c1CNc1cc(NC(=O)N[C@H]2CCc3ccccc32)cn2c(C)c(C)nc12 [Example 78, hydrochloride] | IC50 | 0.1 to 0.5 µM
Cc1cccc(C)c1CNc1cc(NC(C)C)cn2c(C)c(C)nc12 | IC50 | > 0.5 µM

Lookup result for Cc1cc(F)cc(C)c1CNc1cc(NC(=O)NC2CC2)cn2c(C)c(C)nc12 [Example 50, hydrochloride] ; measured IC50: < 0.05 µM

Lookup result for Cc1cccc(C)c1CNc1cc(NC(=O)C[C@@H]2CCCN2)cn2c(C)c(C)nc12 [Example 93, hydrochloride] ; measured IC50: < 0.05 µM

Lookup result for CCOC(=O)CCC(=O)Nc1cc(NCc2c(C)cccc2C)c2nc(C)c(C)n2c1 ; measured IC50: 0.1 to 0.5 µM

* * *

A collection of compounds and their measured pIC50
- tested_on: Proton Pump (H^+,K^+-ATPase) (Sus scrofa)
- Construct: gastric vesicles were isolated from porcine stomachs
- procedure_details: Inhibitory activity on proton pump (H+,K+-ATPase) activity, porcine gastric vesicles, malachite green readout
- test_conditions: porcine gastric vesicles, pH 6.5, 8 mM KCl, 0.2 mM ATP
pIC50: −log10 of the molar value. Structures can show the parent of a compound that is named as a salt.

// solved cases for pIC50 follow
compound | pIC50
Cc1cccc(C)c1CNc1cc(NC(=O)C(C)(F)F)cn2c(C)c(C)nc12 | 6.30 to 7.00
Cc1cccc(C)c1CNc1cc(NC(=O)c2ccccc2)cn2c(C)c(C)nc12 [Example 104, citrate] | 6.30 to 7.00

Observed pIC50 on Proton Pump (H^+,K^+-ATPase) (Sus scrofa), entry Cc1cccc(C)c1CNc1cc(NC(=O)CNC(=O)C(C)(C)C)cn2c(C)c(C)nc12 , equals < 6.30

* * *

- tested_on: Proton Pump (H^+,K^+-ATPase) (Sus scrofa)
- Construct: gastric vesicles were isolated from porcine stomachs
- procedure_details: Inhibitory activity on proton pump (H+,K+-ATPase) activity, porcine gastric vesicles, malachite green readout
- test_conditions: porcine gastric vesicles, pH 6.5, 8 mM KCl, 0.2 mM ATP
pIC50: −log10 of the molar value. Counter-ions that a name gives are not always drawn.
measured_parameter: pIC50

// solved cases for pIC50 follow
compound | tested_on | pIC50
Cc1cccc(C)c1CNc1cc(Br)cn2c(C)c(C)nc12 [Comparative Example 1, reference compound] | Proton Pump (H^+,K^+-ATPase) (Sus scrofa) | 6.30 to 7.00
Cc1cccc(C)c1CNc1cc(NC(=O)NCC2CC2)cn2c(C)c(C)nc12 [Example 30, hydrochloride] | Proton Pump (H^+,K^+-ATPase) (Sus scrofa) | 6.30 to 7.00
Cc1cccc(C)c1CNc1cc(N2CCC2=O)cn2c(C)c(C)nc12 | Proton Pump (H^+,K^+-ATPase) (Sus scrofa) | < 6.30
Cc1cc(F)cc(C)c1CNc1cc(NC(=O)C2(O)CC2)cn2c(C)c(C)nc12 | Proton Pump (H^+,K^+-ATPase) (Sus scrofa) | > 7.30
Cc1cccc(C)c1CNc1cc(NC(=O)CN2CCC2=O)cn2c(C)c(C)nc12 | Proton Pump (H^+,K^+-ATPase) (Sus scrofa) | 7.00 to 7.30
Cc1cccc(C)c1CNc1cc(NC(=O)CO)cn2c(C)c(C)nc12 | Proton Pump (H^+,K^+-ATPase) (Sus scrofa) | > 7.30

Lookup result for COC(=O)CNC(=O)Nc1cc(NCc2c(C)cccc2C)c2nc(C)c(C)n2c1 [Example 46, hydrochloride] ; measured pIC50: 7.00 to 7.30

Lookup result for Cc1cccc(C)c1CNc1cc(NC(=O)N2Cc3ccncc3C2)cn2c(C)c(C)nc12 ; measured pIC50: 7.00 to 7.30

Lookup result for Cc1cccc(C)c1CNc1cc(NC(=O)[C@H]2CCCNC2)cn2c(C)c(C)nc12 [Example 118, hydrochloride] ; measured pIC50: 6.30 to 7.00

Lookup result for Cc1cccc(C)c1CNc1cc(NC(=O)CCC(=O)O)cn2c(C)c(C)nc12 ; measured pIC50: < 6.30

Lookup result for CC(=O)Nc1cc(NCc2c(C)cc(F)cc2C)c2nc(C)c(C)n2c1 ; measured pIC50: > 7.30

Lookup result for Cc1cccc(C)c1CNc1cc(NC(=O)C(C)C)cn2c(C)c(C)nc12 ; measured pIC50: 6.30 to 7.00

Lookup result for Cc1cccc(C)c1CNc1cc(NC(=O)N2CCC(c3ccccc3)CC2)cn2c(C)c(C)nc12 ; measured pIC50: 6.30 to 7.00
